# test_summary: Compound was tested for binding affinity towards cytosolic aminopeptidase
pKi: −log10 of the molar value.
value_type: pKi

Prompt: Consider the molecule CC(=O)[C@@H](N)CC(C)C . State its measured pKi.
Response: < 3.22
